Tested on: MS2 coat protein
Experiment: apparent KD of MS2 coat protein; higher = weaker reporter binding
Settings: Eterna round: R107; input ligand: theophylline 2 mM
Binary call on apparent KD of MS2 coat protein: Satisfied from 20 nM upward, Not satisfied beneath that.

Consider the following illustrative entries.
monomer-sequence	label-class
CCUAUGCAGUCGGCCGCCACUGAAAUCAAUAAGAUUACCUCAGAAACAUGAGGAUCACCCAUGUACAGGACCGGGACUGUAUAGG [Ex Tryptophan B 16]	Satisfied
CAUGGCUGUGCGGCCGCCACUGGCUCAUCCUGCAUUACAUGAGGAUCACCCAUGUUGCGGCCUCCCAGGACCGGGCAUAGCCUGA [Abediat]	Satisfied
AGCUCGCAUCCUCUAGCGUCAAAGACGCGUCGAGGACCGGUACGGCCGCCACUCGACUUGAGGAUCACCCAAGUCUAAGCGAGCA [TrypAX 11 #SwitchBubble #AlternativeMS2 #MS2Late #CuTurnoff]	Satisfied
ACAUGAGGAUCACCCAUGUUAAGCAGGGUGCGAGGACCGGUACGGCCGCCACUCGGACAUUAUUACGAGUGAAUGGUAACGAUGU [#14 Exclusion Tryptophan A]	Satisfied
UGUAUGGACUGAAGGAGCGGGUAAUAAACCUGAGGAUCACCCAGGUAAUAGGCGAAAGCCGCCCAGGUAGGUCGCAGUCCAUACU	Not satisfied

Exercise: Check the entry UUAUAUUAUCGAAGGAGCGUCACAUGAGGAUCACCCAUGUACAUGAGGAUCACCCAUGUGUGGCAGGUAGGUCGCGAUAUAUAAC [Exclusion Arginine B GF9] : does apparent KD of MS2 coat protein equal or exceed 20 nM?
Key: Satisfied

====

Recorded apparent KD of MS2 coat protein values for a group of sequences are listed next.
Test system: MS2 coat protein
Assay: apparent KD of MS2 coat protein; designed switch direction (-1 OFF switch, 1 ON switch): -1; higher = weaker reporter binding
Settings: input ligand: microRNA oligo, concentration not stated
Give the value in nM but do not write nM after it.

Guide cases for apparent KD of MS2 coat protein, answers given:
monomer-sequence	value-kind	measured-value
GAAGGGCGUCUAGGAUAUAGUAUACGGCGAACAUGAGGAUCACCCAUGUGUCCGAAUGCGGCGAGCUAGAAGGAGAAUUCGCCC [Enuseszave] (Eterna round: R96, puzzle: Exclusion NG 2)	apparent KD of MS2 coat protein	33.4
AGAUGCUUAAGUCGACAUGAGGAUCACCCAUGUACAGUUAACGAGGAUAUCCGAGAUAAAUAAUAGGAGAAGGCGUGAUCAUGA [Ex NG3 #2] (Eterna round: R96, puzzle: Exclusion NG 3)	apparent KD of MS2 coat protein	363

Considering AACCUGAGGCUUUGCUUUAGGUGUACAUGAGGAUCACCCAUGUAGGAUAUGGUAGGCUUUGCUUACCAGAAGGACAUUAUGAUU [JL ENG3 1.18] (Eterna round: R96, puzzle: Exclusion NG 3) , its apparent KD of MS2 coat protein with MS2 coat protein was recorded as 33.4

====

Tested on: MS2 coat protein
Assay: apparent KD of MS2 coat protein; designed switch direction (-1 OFF switch, 1 ON switch): -1; higher = weaker reporter binding
Conditions: input ligand: none
As shown below, each of these sequences has a reported apparent KD of MS2 coat protein value.
Lab book: enter the figure in nM, no units written.

Reference set, count: 3
monomer-sequence	measured-value
GUCAUCAAACAUGGGUUAAACAUGAGGAUCACCCAUGUAUACAAGUUUUUUGCUCGUCUUAUAAUAAGUUUGAUGAC [Antenna 7 - Jieux - Sensor, turn-off variant 1] (Eterna round: R97, puzzle: Sensor, turn-off variant 1)	66.8
AGGGAGUCAGGAUAUUAUUUUUAGCGGGAUAACGCUGAGGGUGAGAAGGGACAUGAGGAUCACCCAUGUUUUGA [JR_Ex4_Sub075] (Eterna round: R97, puzzle: Exclusion 4)	183
AGUCAGGCGGUAGGAUAUCCAUAUCGAGUGACCCUUUCAUAACAUGAGGAUCACCCAUGUCGGUGGGAGAAGGGCCGUAAGGCA [Mat - Exclusion NG 2 - Mod of JL - D69] (Eterna round: R96, puzzle: Exclusion NG 2)	41.1

Record summary for UUGGAGAUAGGAUAUACGAGGAGAGUUGAGGGAAGGUGAUGACAUGAGGAUCACCCAUGUAGAAGGAUCAGGAG [JR_Exclu2_Sub069] (Eterna round: R96, puzzle: Exclusion 2) : reported apparent KD of MS2 coat protein = 172

# apparent KD of MS2 coat protein of GCGCCAUCGUGAGAUGGCGUAUUUACAUGAGGAUCACCCAUGUAGGAUAUCGAUUGCUUUGCAGUCGAGAAGGGCAUGAUAAGU [JL ENG3 3.78] (Eterna round: R96, puzzle: Exclusion NG 3) = 54.5

The recorded apparent KD of MS2 coat protein for entry UGAUCAGACCGAGGAUAUACAGGGAGGACGCACGUGAGUGCGUCCACUACAUGAGGAUCACCCAUGUAGAAGGCGGUCUGAUCU [JL ENG2 1.99] (Eterna round: R96, puzzle: Exclusion NG 2) equals 19.9

====

Tested on: MS2 coat protein
Assay: apparent KD of MS2 coat protein; higher = weaker reporter binding
Details: Eterna round: R107; input ligand: none
Quick reference for apparent KD of MS2 coat protein among some sequences

monomer-sequence	apparent KD of MS2 coat protein
ACGUAAUGCAGAAGGAGCGUCAACCUCUUACAUGAGGAUCACCCAUGUUACAUGGUUGUAUGACAGGUAGGUCGCUGAAGUACGA [JR_ExcArginiB_Sub001]	0.0347 µM
GGGUACAUCGCGGCCGCCACUCGUGUAAAUACAUGAGGAUCACCCAUGUCGAUGGAGACAUCGGAGAGGACCGGGUGAUGUACCG	0.081 µM
UAAACAUGAGGAUCACCCAUGUUGGAUGAAGGAGCGACCAGAGGGUCAGGUAGGUCGCAUCACAUGAGGAUCACCCAUGUCAUUU [DOUBLE!!! :-D #12]	0.108 µM
GGUUACUCUACGGCCGCCACUGUAAUGUAAAGAUACCUGUACAUGACAUGAGGAUCACCCAUGUGCAGGACCGGGUAGUGUAACC [Tryptophan B 19]	0.0616 µM
ACAUGAGGAUCACCCAUGUACAUAAGGGAAGGAGCGCGGUGAAACGCAGGUAGGUCGCCCAUAAUAACAAACAUUAAAUUCAUGU [LeftA2]	0.0143 µM
AGAGUUAGACAAAAGUCUAGCUCACCAGAAGGAGCGUCCGAAAGGACAGGUAGGUCGCUGGUGCAUGAGGAUCACCCAUGUUCCU [ArgAS 20 #OpenEnded #AlternativeMS2]	0.115 µM
CUAUGCAGGUCGGCCGCCACUACACACAUGAGGAUCACCCAUGUAGUUACUGGGUGAAGUGGCAGUAGGACCGGGACCUGCACAU [Brourdmod15]	0.48 µM
UGGUAGGUAGGAAGGAGCGCAUACUUCACAUGAGGAUCACCCAUGUCGAGACGUGAGUCAGUGCAGGUAGGUCGCCUAGUUAUGA [Same State - Arginine B (Freestyle 23)]	0.0364 µM

Record summary for ACAUGAGGAUCACCCAUGUAUUCAUCAGAAGGAGCGUGGAAUAACACAGGUAGGUCGCUGAUUAUUUGUUAAAUAAAUUCGUGUA [JR_Nu_SSArginiA_Sub023] : reported apparent KD of MS2 coat protein = 0.0161 µM

In plain terms, GACCUUAUCUGAAGGAGCGAGGUAAAUAGGGAUGAGCAUACAUGAGGAUCACCCAUGUGGCCUCAGGUAGGUCGCAGAUGAGAUU [Exclusion Arginine B GF27] has a documented apparent KD of MS2 coat protein of 0.113 µM

Notebook: AUGGACGGCGAUCUGGGUUUACCAGAUCGGCGAGGACCGGUACGGCCGCCACUCGUGUUUAUUUAACAUGAGGAUCACCCAUGUA [SSTA #2] , apparent KD of MS2 coat protein read as 0.0976 µM

Looking up GCCGGACUUUCGGCCGCCACUGAGAGAGUCGUGUGAACAUGAGGAUCACCCAUGUAAUAUAUAUACAGGACCGGGAGGGUUCGGC [4.S] , I found its apparent KD of MS2 coat protein recorded as 0.0122 µM

Record GUACAUGAGGAUCACCCAUGUAUAGUUGAAGGAGCGACCGGUGGGUCAGGUAGGUCGCAGCGCAUGGCGUCCACGCGUGUAUGCC [#1 Exclusion - Arginine A Attempt #29 (Inspired by Pi)] , field apparent KD of MS2 coat protein: 0.0123 µM

====

System: K4 kissing-loop RNA reporter;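 further: bound reporter read as fluorescence of individual clusters on recovered sequencing chips by microscopy, with normalized cluster intensities fitted with a binding model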
Test: apparent KD of K4 kissing-loop reporter; higher = weaker reporter binding
Settings: Eterna round: R107; input ligand: none
Recorded apparent KD of K4 kissing-loop reporter values for a group of sequences are listed next.
Give just the numeric value; nM need not be written.

Here are 2 sequences together with their reported answers.
>>> print(df.to_string())
                           monomer_sequence                  study_system                               value_kind  measured_value
0  AUCGAUAUCAGAGGAUAUGCUUAAUUGAUUUAUUAUUAUUUAUUAUGCAGUGAUGUUGCAUUUUUUGCAGAAGGCUGAUUUCGAA [JR_SSFMNB_Sub022]  K4 kissing-loop RNA reporter  apparent KD of K4 kissing-loop reporter             126
1  AUGGUGGAGGAGUGAUGUUCUUGGAGUAGGUAGGAUAUGAGUGAUGUUAGAAGGAUCGGAGUGAUGUUCCAGGUGGUUGUGUUGU [KL-SSFMN-A2]  K4 kissing-loop RNA reporter  apparent KD of K4 kissing-loop reporter             765

As a next step, examine the sequence that follows.
GET /value?item= UGUCAUGGAAACAUGAACGUUGAUGUUCGACGAGGACCGGUACGGCCGCCACUCGAGUAAUAGUCAGUGAUGUUGACUGGGCUAA [KL-SSTryp-A form1 sub2] &field=apparent KD of K4 kissing-loop reporter returns 219
